Please respond with reported pIC50 for every item in the list.
biological target: Cholinesterase (Equus caballus, UniProt P81908); assay: Inhibition of equine serum BuChE using S-butyrylthiocholine iodide as a substrate measured for 125 secs by DNTB reagent based Ellman's method
Sequence (P81908 whole entry): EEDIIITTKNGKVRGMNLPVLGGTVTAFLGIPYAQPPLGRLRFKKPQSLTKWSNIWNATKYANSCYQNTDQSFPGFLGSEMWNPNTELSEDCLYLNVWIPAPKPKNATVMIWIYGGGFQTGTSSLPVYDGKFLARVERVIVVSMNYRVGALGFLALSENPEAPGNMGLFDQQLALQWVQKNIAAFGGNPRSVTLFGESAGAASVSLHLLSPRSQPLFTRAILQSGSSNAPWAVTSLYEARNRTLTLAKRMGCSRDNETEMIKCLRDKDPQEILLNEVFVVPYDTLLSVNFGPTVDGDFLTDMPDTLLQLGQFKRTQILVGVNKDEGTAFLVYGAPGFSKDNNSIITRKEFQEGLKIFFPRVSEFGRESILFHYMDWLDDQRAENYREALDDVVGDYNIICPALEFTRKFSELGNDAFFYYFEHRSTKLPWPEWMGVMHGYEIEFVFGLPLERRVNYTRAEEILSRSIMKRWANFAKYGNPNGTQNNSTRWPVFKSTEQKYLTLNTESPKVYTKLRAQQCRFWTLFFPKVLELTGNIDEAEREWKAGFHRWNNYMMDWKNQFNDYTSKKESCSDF
# pIC50 is unitless: minus log10 of the molar concentration; print number only

Look up and state reported pIC50 for O=C1CCCN1C1(C(=O)NCc2ccccc2)C(=O)Nc2ccccc21 (configuration not stated) 4.15

Look up and state reported pIC50 for CC(C)(C)NC(=O)C1(N2CCCC2=O)C(=O)N(c2ccccc2)c2ccccc21 (configuration not stated) 5.21

Look up and state reported pIC50 for CC(C)(C)CC(C)(C)NC(=O)C1(N2CCC2=O)C(=O)Nc2ccccc21 (configuration not stated) 4.38

Look up and state reported pIC50 for CC(C)(C)NC(=O)C1(N2CCCC2=O)C(=O)Nc2ccc([N+](=O)[O-])cc21 (configuration not stated) 4.03

Look up and state reported pIC50 for CC(C)(C)NC(=O)C1(N2CCC2=O)C(=O)Nc2ccc(I)cc21 (configuration not stated) 4.10

Look up and state reported pIC50 for CC(C)(C)NC(=O)C1(N2CCCC2=O)C(=O)Nc2ccc(I)cc21 (configuration not stated) 4.17

Look up and state reported pIC50 for CC(C)(C)NC(=O)C1(N2CCCC2=O)C(=O)N(Cc2ccccc2)c2ccccc21 (configuration not stated) 4.49
